- Assay Comment: Thermodynamic equilibrium solubility of the compound using 10 mM DMSO at pH 6
- Type: physicochemical
- Condition Context: buffer, read-out: Therm_solubility

Structure Smiles String | Relation Operator | solubility thermodynamic [µg/mL]
CCc1nc2cc(Cl)ccc2n1CCCCOc1ccccc1 | < | 1
CCc1nc2ccccc2n1CCCCNc1ccccc1 | = | 10
CCc1nc2ccc(C)cc2n1CCCCOc1ccccc1 | = | 40
CCc1nc2ccccc2n1CCCCSc1nnc(-c2ccc(Cl)cc2)o1 | < | 1

###

- Tested on: Mycobacterium tuberculosis
- Assay Comment: Antitubercular activity against Mycobacterium tuberculosis H37Rv ATCC 25618 under aerobic condition after 5 days
- Assay type: functional
- Condition Context: H37Rv ATCC 25618, 120 h
Labelling field: enter 1 if recorded MIC is less than 10 µM. Enter -1 if it equals or exceeds that cut-off.

Molecule | System Tested | Qualitative Label
Cc1nc2ccccc2n1CCCOc1ccccc1 | Mycobacterium tuberculosis | -1
CCc1nc2ccc(C)cc2n1CCCSc1ccc(C)cc1 | Mycobacterium tuberculosis | 1
CCc1cc2ccccc2n1CCCCNc1ccc(C)c(Br)c1 | Mycobacterium tuberculosis | -1
CCc1nc2ccc(OC)cc2n1CCCCOc1ccccc1 | Mycobacterium tuberculosis | 1
CCc1nc2ccccc2n1CCCCOc1ccc(C#N)cc1 | Mycobacterium tuberculosis | -1
CCc1nc2ccccc2n1CCCCOc1ccc(Cl)c(F)c1 | Mycobacterium tuberculosis | 1
CCc1nc2ccccc2n1CCCCOc1ccnc2ccccc12 | Mycobacterium tuberculosis | -1
Cc1ccc2nc(C(C)O)n(CCCCOc3ccc(C)c(Cl)c3)c2c1 (configuration not stated) | Mycobacterium tuberculosis | -1
CCc1nc2ccncc2n1CCCCOc1ccccc1 | Mycobacterium tuberculosis | -1
c1ccc(OCCCCn2c(N3CCOCC3)nc3ccccc32)cc1 | Mycobacterium tuberculosis | -1
c1ccc(OCCCCn2c(-c3ccccc3)nc3ccccc32)cc1 | Mycobacterium tuberculosis | -1
CCc1cc2ccccc2n1CCCCSc1nnc(-c2ccc(Cl)cc2)o1 | Mycobacterium tuberculosis | -1
